Target: T1, G9a and GLP (Homo sapiens, UniProt Q96KQ7+Q9H9B1)
T1 sequence (Q96KQ7 2-1210 limits assumed): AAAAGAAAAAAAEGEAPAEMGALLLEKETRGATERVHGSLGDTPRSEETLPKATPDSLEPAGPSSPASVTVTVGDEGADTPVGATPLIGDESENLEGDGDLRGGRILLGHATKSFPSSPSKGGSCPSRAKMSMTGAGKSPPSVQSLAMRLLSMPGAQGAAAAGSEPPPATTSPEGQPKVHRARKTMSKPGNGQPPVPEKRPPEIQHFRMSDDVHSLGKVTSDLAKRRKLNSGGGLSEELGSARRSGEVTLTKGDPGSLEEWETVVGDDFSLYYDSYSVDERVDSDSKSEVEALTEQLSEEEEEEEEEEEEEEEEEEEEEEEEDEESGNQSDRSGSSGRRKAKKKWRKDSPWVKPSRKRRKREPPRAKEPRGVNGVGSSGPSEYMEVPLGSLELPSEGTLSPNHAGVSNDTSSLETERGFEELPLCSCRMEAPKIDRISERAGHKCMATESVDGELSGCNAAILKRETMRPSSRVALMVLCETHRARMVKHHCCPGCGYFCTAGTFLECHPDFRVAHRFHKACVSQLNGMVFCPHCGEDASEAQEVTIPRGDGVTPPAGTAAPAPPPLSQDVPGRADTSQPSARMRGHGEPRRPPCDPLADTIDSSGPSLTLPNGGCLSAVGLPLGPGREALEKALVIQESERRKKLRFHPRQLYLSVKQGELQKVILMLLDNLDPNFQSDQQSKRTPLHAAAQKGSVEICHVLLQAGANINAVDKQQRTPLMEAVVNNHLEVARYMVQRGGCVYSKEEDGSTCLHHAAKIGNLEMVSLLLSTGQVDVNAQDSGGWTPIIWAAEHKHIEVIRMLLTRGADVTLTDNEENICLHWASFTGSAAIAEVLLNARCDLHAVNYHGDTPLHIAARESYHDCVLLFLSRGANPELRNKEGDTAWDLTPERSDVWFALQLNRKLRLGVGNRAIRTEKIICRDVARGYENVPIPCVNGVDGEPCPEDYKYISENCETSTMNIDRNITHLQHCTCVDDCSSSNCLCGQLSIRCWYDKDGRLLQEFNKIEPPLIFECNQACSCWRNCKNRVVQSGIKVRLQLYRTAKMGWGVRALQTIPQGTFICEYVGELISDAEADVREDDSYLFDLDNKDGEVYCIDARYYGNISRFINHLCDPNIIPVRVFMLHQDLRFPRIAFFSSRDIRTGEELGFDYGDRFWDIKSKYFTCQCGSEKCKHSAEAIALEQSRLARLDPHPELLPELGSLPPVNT
T1 sequence (Q9H9B1 2-1298 limits assumed): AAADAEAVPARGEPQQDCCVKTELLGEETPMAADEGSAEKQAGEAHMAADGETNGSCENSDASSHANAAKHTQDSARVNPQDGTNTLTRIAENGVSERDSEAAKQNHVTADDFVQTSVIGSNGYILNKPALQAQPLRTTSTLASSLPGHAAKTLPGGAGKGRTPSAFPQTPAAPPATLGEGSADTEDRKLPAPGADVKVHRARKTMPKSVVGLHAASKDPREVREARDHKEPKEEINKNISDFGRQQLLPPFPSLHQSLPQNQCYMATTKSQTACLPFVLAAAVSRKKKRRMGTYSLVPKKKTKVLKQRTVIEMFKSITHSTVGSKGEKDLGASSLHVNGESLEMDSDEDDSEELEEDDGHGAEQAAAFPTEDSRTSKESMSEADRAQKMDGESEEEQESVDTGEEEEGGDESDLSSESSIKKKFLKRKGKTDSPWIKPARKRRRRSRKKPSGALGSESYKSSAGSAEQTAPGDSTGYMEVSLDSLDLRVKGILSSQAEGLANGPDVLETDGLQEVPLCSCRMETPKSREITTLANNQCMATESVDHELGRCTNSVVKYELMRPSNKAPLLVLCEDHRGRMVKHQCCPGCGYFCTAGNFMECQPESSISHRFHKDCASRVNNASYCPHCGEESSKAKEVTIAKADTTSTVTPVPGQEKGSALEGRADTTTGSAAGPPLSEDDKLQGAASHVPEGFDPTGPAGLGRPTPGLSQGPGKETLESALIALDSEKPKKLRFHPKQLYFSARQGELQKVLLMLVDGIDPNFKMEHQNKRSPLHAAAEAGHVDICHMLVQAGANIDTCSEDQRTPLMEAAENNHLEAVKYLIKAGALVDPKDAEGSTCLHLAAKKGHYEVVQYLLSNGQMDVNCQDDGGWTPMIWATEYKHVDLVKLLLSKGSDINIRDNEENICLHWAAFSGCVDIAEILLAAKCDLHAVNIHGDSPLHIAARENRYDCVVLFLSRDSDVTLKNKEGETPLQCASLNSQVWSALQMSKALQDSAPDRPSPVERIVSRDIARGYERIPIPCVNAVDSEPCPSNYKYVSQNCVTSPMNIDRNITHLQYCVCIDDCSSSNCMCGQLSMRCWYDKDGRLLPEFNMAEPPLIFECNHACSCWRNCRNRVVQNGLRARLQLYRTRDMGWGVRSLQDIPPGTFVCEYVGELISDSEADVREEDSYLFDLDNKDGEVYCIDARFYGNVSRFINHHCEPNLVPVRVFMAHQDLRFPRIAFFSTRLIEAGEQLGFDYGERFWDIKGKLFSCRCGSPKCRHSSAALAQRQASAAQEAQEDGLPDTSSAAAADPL
Assay: Triple SILAC pull-down after UNC0638 treatment of 293T cells, DMSO/UNC0638 ratio of protein captured by 3×MBT;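 also: mass spectrometry (Q-Exactive) SILAC quantitation, DMSO/UNC0638 ratio computed after subtracting 3×MBTD355N mutant pull-down background, only proteins with at least twofold 3×MBT over mutant signal considered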
Assay type: cell-based
Design: cells were treated for 24 hours with UNC0638 at 2.5 μM or DMSO vehicle control; endogenous in cells; host or cells: HEK 293T
Conditions: SILAC ratio DMSO/UNC0638 of protein pulled down with 3xMBT; UNC0638 in light SILAC media
OBSERVATION_TYPE: Relative to UNC0638 UNC Light
# output: numeric value plus its unit

QUERY: Hello, please tell me recorded Relative to UNC0638 UNC Light for this one: HNRNPD (protein, UniProt Q14103 2-355, looked up) Heterogeneous nuclear …: SEEQFGGDGAAAAATAAVGGSAGEQEGAMVAATQGAAAAAGSGAGTGGGTASGGTEGGSAESEGAKIDASKNEEDEGHSNSSPRHSEAATAQREEWKMFIGGLSWDTTKKDLKDYFSKFGEVVDCTLKLDPITGRSRGFGFVLFKESESVDKVMDQKEHKLNGKVIDPKRAKAMKTKEPVKKIFVGGLSPDTPEEKIREYFGGFGEVESIELPMDNKTNKRRGFCFITFKEEEPVKKIMEKKYHNVGLSKCEIKVAMSKEQYQQQQQWGSRGGFAGRARGRGGGPSQNWNQGYSNYWNQGYGNYGYNSQGYGGYGGYDYTGYNNYYGYGDYSNQQSGYGKVSRRGGHQNSYKPY
RESULT: 0.29 log base 2
